Assay: in vitro
Details: human, HUVEC cells
Description: Cytotoxicity against HUVEC cells assessed as inhibition of cell growth incubated for 72 hrs by MTT assay
Quantity Name: IC50 at 72 h (µM)

C=CC(=O)Nc1ccc(C(=O)n2ccc3cc(Br)cnc32)cc1; 75.4
C=CC(=O)Nc1ccc(Cn2cnc3c(-c4cc(OC)cc(OC)c4)ncnc32)cc1; 82.1
O=C(CCl)Nc1ccc(Cn2cnc3c(Cl)ncnc32)cc1; 64

====

Tested on: HepG2
Assay: cells
Conditions: Homo sapiens, HepG2, 72 h
pIC50: −log10 of the molar value.
Quantity Name: pIC50

The examples below pair each entry with its known result.
C=CC(=O)Nc1cc(Cn2nnc3c(C(=O)NCC(F)F)cccc32)ccc1F; 4.70
C=CC(=O)Nc1ccc(C(=O)n2ncc3cccnc32)cc1; 4.37

[I] C=CC(=O)Nc1cc(Cn2nnc3c(C(=O)OC)cccc32)ccc1F
[II] C=CC(=O)Nc1ccc(Cn2cnc3c(-c4ccc(F)c(F)c4)ncnc32)cc1
// query Given I and II , report the one with the higher recorded pIC50. # answer = label of selected item
// result II
(II: 5.08, I: 4.52)

[a] C=CC(=O)Nc1cc(Cn2cnc3cnc(Cl)nc32)ccc1F
[b] C=CC(=O)Nc1cc(Cn2ccc3ccc(Br)cc32)ccc1F
// query Just tell me: smaller pIC50 value, a or b ? Returns: label corresponding to the selected item.
// result a

[a] O=C(Nc1ccc(Cn2cnc3c(Cl)ncnc32)cc1)C1CC1
[b] C=CC(=O)Nc1ccc(Cn2cnc3c(-c4ccccc4)ncnc32)cc1
// query Lab log: flag the item ( a or b ) with the smaller pIC50 figure. Kindly give the label for the entry you pick.
// result a
(a: 4.57, b: 5.03)

====

System: MDA-MB-231
Experiment: cells
Settings: Homo sapiens, MDA-MB-231, 72 h
Quantity Name: IC50 (µM)

Field: example entries. Status: answers known.
C=CC(=O)Nc1ccc(Cn2cnc3c(-c4cccs4)ncnc32)cc1; 6.18
C=CC(=O)Nc1cc(Cn2cnc3ccc(Cl)nc32)ccc1F; 25.8
C=CC(=O)Nc1ccc(Cn2cnc3c(-c4cc5ccccc5s4)ncnc32)cc1; 13.9
C=CC(=O)Nc1ccc(Cn2cnc3c(-c4ccc(F)c(F)c4)ncnc32)cc1; 5.64
C=CC(=O)Nc1ccc(C(=O)n2ccc3cc(Br)cnc32)cc1; 24.4
CC(C)C(=O)Nc1ccc(Cn2cnc3c(Cl)ncnc32)cc1; 7.17
C=CC(=O)Nc1ccc(Cn2cnc3c(-c4cc(OC)cc(OC)c4)ncnc32)cc1; 1.89
CC(Cl)C(=O)Nc1ccc(Cn2cnc3c(Cl)ncnc32)cc1 (stereo not given); 9.87
C=CC(=O)Nc1ccc(Cn2cnc3c(-c4cc5ccccc5o4)ncnc32)cc1; 6.53
C=CC(=O)Nc1cc(Cn2nnc3c(C(=O)NCC(F)F)cccc32)ccc1F; 29.2

[1] C=CC(=O)Nc1cc(Cn2nnc3c(C(=O)OC)cccc32)ccc1F
[2] C=CC(=O)Nc1ccc(Cn2cnc3c(-c4ccccc4)ncnc32)cc1
// query Could you tell me which of these two has the smaller IC50 figure? First: 1 Second: 2 Answer by stating the label of the chosen item.
// result 2
(2: 7.22 µM, 1: 20.3 µM)

[A] C=CC(=O)Nc1cc(Cn2cnc3cnc(Cl)nc32)ccc1F
[B] CC(C)=CC(=O)Nc1ccc(Cn2cnc3c(Cl)ncnc32)cc1
// query Of A and B , whose reported IC50 is numerically smaller? Returns: label corresponding to the selected item.
// result B
(B: 7.36 µM, A: 23.8 µM)

Origin of measurements: ChEMBL document CHEMBL5500360
